Give Abs. Max for every item shown.
Test: Absorption maximum of asymmetric sensitizers
Type: physicochemical
Numbers only, in nm.

Some solved entries appear below for comparison.
# compound, measured
records = [
    ("CCC(C)Oc1c(OC)cc(/C=C/c2ccc(/C=C/c3cc(OC)c(OC(CC)CC)c(OC)c3)cc2)cc1OC (centres unmarked)", 370),
    ("CCCCC(CC)COc1c(OC)cc(/C=C/c2ccc(/C=C/c3cc(OC)c(OC(C)CC)c(OC)c3)cc2)cc1OC (centres unmarked)", 371),
    ("CCC(C)Oc1c(OC)cc(/C=C/c2ccc(/C=C/c3cc(OC)c(OCCO)c(OC)c3)cc2)cc1OC (centres unmarked)", 371),
    ("CCC(C)Oc1c(OC)cc(/C=C/c2ccc(/C=C/c3cc(OC)c(OC4CCCCC4)c(OC)c3)cc2)cc1OC (centres unmarked)", 371),
]

Endpoint output: Abs. Max of CCC(C)Oc1c(OC)cc(/C=C/c2ccc(/C=C/c3cc(OC)c(OC4CCCC4)c(OC)c3)cc2)cc1OC (centres unmarked) . Value?
371
